Target: Human Mitochondrial ALDH (ALDH-2) (Homo sapiens, UniProt P05091)
Construct: Human, hamster, and rat liver mitochondrial and cytosolic ALDH isozymes were purified as described in Klyosov; from tissue; host or cells: human liver
Experiment: Inhibition of human mitochondrial ALDH (ALDH-2), competitive and noncompetitive inhibition constants
Type: biochemical
Conditions: human mitochondrial ALDH; read-out: ALDH-2 αKi (noncompetitive inhibition constant)
recorded.metric: log10(Ki) (log10 of the value in µM)
Log scale reminder: Ki in µM, then log10 taken.

Some compounds with known log10(Ki) results, for comparison:
CC[N+](CC)(CC)CCCCCCOc1ccc2c(=O)c(-c3ccc(O)cc3)coc2c1 [Compound 11, 7-O-(triethyl-6-aminohexyl)-daidzein]	-1.10
CN(C)CCC(=O)Oc1ccc2c(=O)c(-c3ccc(O)cc3)coc2c1 [Compound 18, 7-O-daidzein-3-dimethylaminopropionate]	1.38
O=C(CCl)Oc1ccc2c(=O)c(-c3ccc(O)cc3)coc2c1 [Compound 16, 7-O-daidzein-2-chloroacetate]	1.03
CCOc1ccc2c(=O)c(-c3ccc(O)cc3)coc2c1 [Compound 7]	-0.25
O=C(CBr)Oc1ccc2c(=O)c(-c3ccc(O)cc3)coc2c1 [Compound 17, 7-O-daidzein-2-bromoacetate]	1.30

Returns the measured log10(Ki) for the input compound. Input: O=C(O)CCCCCCCCCOc1ccc2c(=O)c(-c3ccc(O)cc3)coc2c1 [Compound 5] -1.30

----------
Tested on: alcohol preferring Syrian golden hamsters
Test: Ethanol intake suppression (antidipsotropic activity) in alcohol preferring Syrian golden hamsters
Conditions: equivalent doses (0.07 meq/hamster/day), FIG. 1
recorded.metric: ethanol intake suppression

Returns the measured ethanol intake suppression for the input compound. Input: O=c1c(-c2ccc(O)cc2)coc2cc(O)ccc12 −30%

----------
Target: Human Mitochondrial ALDH (ALDH-2) (Homo sapiens)
Construct: Human, hamster, and rat liver mitochondrial and cytosolic ALDH isozymes were purified as described in Klyosov; from tissue; host or cells: human liver
Sequence (P05091 18-517): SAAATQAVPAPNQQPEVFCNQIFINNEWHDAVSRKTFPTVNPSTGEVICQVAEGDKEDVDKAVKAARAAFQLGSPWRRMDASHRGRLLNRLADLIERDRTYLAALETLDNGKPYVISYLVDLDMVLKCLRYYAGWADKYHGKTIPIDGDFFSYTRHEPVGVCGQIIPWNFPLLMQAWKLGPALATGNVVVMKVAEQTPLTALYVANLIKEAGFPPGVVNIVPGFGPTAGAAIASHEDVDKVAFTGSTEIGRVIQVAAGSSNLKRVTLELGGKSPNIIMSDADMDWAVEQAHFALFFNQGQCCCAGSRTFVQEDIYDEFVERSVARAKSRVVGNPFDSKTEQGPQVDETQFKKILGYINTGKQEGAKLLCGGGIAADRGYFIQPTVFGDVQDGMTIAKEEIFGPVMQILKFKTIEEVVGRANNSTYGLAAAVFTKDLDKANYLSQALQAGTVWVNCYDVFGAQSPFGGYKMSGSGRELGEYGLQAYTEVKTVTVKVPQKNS
Assay: Inhibition of human mitochondrial ALDH (ALDH-2), competitive and noncompetitive inhibition constants
Format: biochemical
Settings: human mitochondrial ALDH; read-out: ALDH-2 Ki (competitive inhibition constant)
recorded.metric: Ki (nM)
Provide only the numeric value, understood in nM.

CC[N+](CC)(CC)CCOc1ccc2c(=O)c(-c3ccc(O)cc3)coc2c1 [Compound 15, 7-O-(triethyl-6-aminoethyl)-daidzein]	80
O=c1cc(-c2ccccc2)oc2c(O)c(O)ccc12 [Compound 22, 7,8-Dihydroxyflavone]	35000
CCOc1ccc2c(=O)c(-c3ccc(O)cc3)coc2c1 [Compound 7]	35

Then this compound:
Returns the measured Ki for the input compound. Input: O=C(CBr)Oc1ccc2c(=O)c(-c3ccc(O)cc3)coc2c1 [Compound 17, 7-O-daidzein-2-bromoacetate] 1800

----------
Molecular target: Human Mitochondrial ALDH (ALDH-2) (Homo sapiens, UniProt P05091)
Construct: Human, hamster, and rat liver mitochondrial and cytosolic ALDH isozymes were purified as described in Klyosov; from tissue; host or cells: human liver
Experiment: Inhibition of human mitochondrial ALDH (ALDH-2), competitive and noncompetitive inhibition constants
Assay type: biochemical
Conditions: human mitochondrial ALDH; read-out: ALDH-2 Ki (competitive inhibition constant)
Listing of entries alongside the reported Ki.
Provide only the numeric value, understood in nM.

Returns the measured Ki for the input molecule. Input: O=C(O)CCCCCCCCCOc1ccc2c(=O)c(-c3ccc(O)cc3)coc2c1 4

----------
Test system: alcohol preferring Syrian golden hamsters
Test: Ethanol intake suppression (antidipsotropic activity) in alcohol preferring Syrian golden hamsters
Details: equivalent doses (0.07 meq/hamster/day), FIG. 1
recorded.metric: ethanol intake suppression

O=c1c(-c2ccc(O)cc2)coc2cc(O[C@@H]3O[C@H](CO)[C@@H](O)[C@H](O)[C@H]3O)ccc12	> 60%

Then this molecule:
Returns the measured ethanol intake suppression for the input molecule. Input: O=c1c(-c2ccc(O)cc2)coc2cc(OCCC3OCCCO3)ccc12 −30%

----------
Biological target: Human Mitochondrial ALDH (ALDH-2) (Homo sapiens)
Construct: Human, hamster, and rat liver mitochondrial and cytosolic ALDH isozymes were purified as described in Klyosov; from tissue; host or cells: human liver
Sequence (P05091 18-517): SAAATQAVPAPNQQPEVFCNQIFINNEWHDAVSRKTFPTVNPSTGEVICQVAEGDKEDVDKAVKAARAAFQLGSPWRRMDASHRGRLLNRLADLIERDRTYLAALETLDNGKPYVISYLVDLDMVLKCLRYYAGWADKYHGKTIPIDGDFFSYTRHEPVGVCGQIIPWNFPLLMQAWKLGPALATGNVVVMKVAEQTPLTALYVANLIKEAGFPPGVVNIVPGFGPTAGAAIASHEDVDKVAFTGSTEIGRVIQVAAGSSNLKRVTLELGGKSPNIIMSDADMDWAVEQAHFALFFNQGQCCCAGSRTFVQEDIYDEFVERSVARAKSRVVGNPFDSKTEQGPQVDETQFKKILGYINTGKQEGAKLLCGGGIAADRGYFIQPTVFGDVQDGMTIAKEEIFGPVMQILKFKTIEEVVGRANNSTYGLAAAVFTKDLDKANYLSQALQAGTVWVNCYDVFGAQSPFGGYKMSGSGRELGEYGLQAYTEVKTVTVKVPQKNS
Experiment: Inhibition of human mitochondrial ALDH (ALDH-2), competitive and noncompetitive inhibition constants
Assay type: biochemical
Conditions: human mitochondrial ALDH; read-out: ALDH-2 αKi (noncompetitive inhibition constant)
recorded.metric: Ki (nM)
Provide only the numeric value, understood in nM.

Some compounds with known Ki results, for comparison:
O=c1c(-c2ccc(O)cc2)coc2cc(OCCCCCCBr)ccc12 [Compound 10, 7-O-(6-bromohexyl)-daidzein]	70
CC(Br)CCCCC(=O)Oc1ccc2c(=O)c(-c3ccc(O)cc3)coc2c1 (stereo not shown) [Compound 14, 7-O-daidzein-6-bromoheptanoate]	260
CC[N+](CC)(CC)CCOc1ccc2c(=O)c(-c3ccc(O)cc3)coc2c1 [Compound 15, 7-O-(triethyl-6-aminoethyl)-daidzein]	1600
O=c1cc(-c2ccccc2)oc2cc(O)cc(O)c12 [Compound 21, Chrysin, reference compound]	110000
O=C(O)CCCCCCOc1ccc2c(=O)c(-c3ccc(O)cc3)coc2c1 [Compound 4, 7-O-[ω-carboxyhexyl]-daidzein]	140
NCCCCCCOc1ccc2c(=O)c(-c3ccc(O)cc3)coc2c1 [Compound 13, 7-O-(6-aminohexyl)-daidzein]	600

Returns the measured Ki for the input compound. Input: O=c1cc(-c2ccccc2)oc2c(O)c(O)ccc12 [Compound 22, 7,8-Dihydroxyflavone] 270000

----------
Molecular target: Human Mitochondrial ALDH (ALDH-2) (Homo sapiens)
Construct: Human, hamster, and rat liver mitochondrial and cytosolic ALDH isozymes were purified as described in Klyosov; from tissue; host or cells: human liver
Sequence (P05091 18-517): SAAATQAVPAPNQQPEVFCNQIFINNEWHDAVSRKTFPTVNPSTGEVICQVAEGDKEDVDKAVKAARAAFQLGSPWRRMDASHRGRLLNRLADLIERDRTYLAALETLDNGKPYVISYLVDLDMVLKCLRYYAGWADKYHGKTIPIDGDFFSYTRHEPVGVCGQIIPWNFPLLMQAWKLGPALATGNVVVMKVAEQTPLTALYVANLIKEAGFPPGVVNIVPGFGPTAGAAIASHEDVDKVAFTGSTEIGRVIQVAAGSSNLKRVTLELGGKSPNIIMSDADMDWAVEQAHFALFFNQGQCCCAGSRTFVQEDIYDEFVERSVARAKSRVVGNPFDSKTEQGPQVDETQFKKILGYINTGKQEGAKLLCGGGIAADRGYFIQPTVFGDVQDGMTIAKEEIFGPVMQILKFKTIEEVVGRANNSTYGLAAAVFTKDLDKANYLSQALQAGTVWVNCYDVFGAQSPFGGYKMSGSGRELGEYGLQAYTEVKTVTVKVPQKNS
Assay: Inhibition of human mitochondrial ALDH (ALDH-2), competitive and noncompetitive inhibition constants
Type: biochemical
Conditions: human mitochondrial ALDH; read-out: ALDH-2 Ki (competitive inhibition constant)
pKi: −log10 of the molar value.
Label criterion met when pKi is at or above 6; otherwise label criterion not met.

O=C(O)CCCCCCOc1ccc2c(=O)c(-c3ccc(O)cc3)coc2c1 [Compound 4, 7-O-[ω-carboxyhexyl]-daidzein]	criterion met

Is the recorded value of pKi equal to or greater than 6 for this compound? CN(C)CCC(=O)Oc1ccc2c(=O)c(-c3ccc(O)cc3)coc2c1 [Compound 18, 7-O-daidzein-3-dimethylaminopropionate] criterion not met

Thanks! And O=c1cc(-c2ccccc2)oc2cc(O)cc(O)c12 [Compound 21, Chrysin, reference compound] ? criterion not met

Thanks! And NCCCCCCOc1ccc2c(=O)c(-c3ccc(O)cc3)coc2c1 [Compound 13, 7-O-(6-aminohexyl)-daidzein] ? criterion met

Thanks! And CC(Br)CCCCC(=O)Oc1ccc2c(=O)c(-c3ccc(O)cc3)coc2c1 (stereo not drawn) [Compound 14, 7-O-daidzein-6-bromoheptanoate] ? criterion met
